system: Hepatitis C virus; experiment: Antiviral activity against HCV JFH-1 infected in human Huh7.5.1 cells assessed as reduction in NS3/NS5A expression by Western blot analysis; assay type: functional, organism-based, Hepacivirus hominis; settings: Hepatitis C virus, JFH-1, Huh-7.5.1
Endpoint Name: IC50 (µM)
Please state the figure in µM; there is no need to write the unit.

Query block: Param item = COc1cc([C@H]2Oc3cc(/C=C/CO)cc(OC)c3O[C@@H]2C)cc(OC)c1OC ; retrieve measured IC50.
Result block: 50

Query block: Param item = C=CCc1cc(OC)c2c(c1)O[C@H](c1cc(OC)c(OC)c(OC)c1)[C@@H](C)O2 ; retrieve measured IC50.
Result block: 30

Query block: Param item = COc1cc([C@H]2Oc3cccc(OC)c3O[C@@H]2C)cc(OC)c1OC ; retrieve measured IC50.
Result block: 40

Query block: Param item = COc1cc([C@H]2Oc3cc(/C=C/CO)cc(OC)c3O[C@@H]2CO)cc(OC)c1O ; retrieve measured IC50.
Result block: 200

Continuing:
Query block: Param item = COc1cc([C@H]2Oc3cc(/C=C/C=O)cc(OC)c3O[C@@H]2C)cc(OC)c1OC ; retrieve measured IC50.
Result block: 25
